# System: UACC-257 melanoma
# EXPERIMENT_SUMMARY: NCI-60 one-dose screen, 48 h (100 = growth as untreated, 0 = no growth, -100 = all killed)
# RECORDED_CONDITIONS: 10 µM unless noted
Compounds without any hit were thinned out: in the full panel of roughly 83,000, 20% have a hit. The source made the active and inactive calls. The calls were made as follows: active = growth percent below 10; inactive = the rest.
Listed here are compounds together with their documented growth.

{"LINE_NOTATION": "N#Cc1c(-c2ccc(F)cc2)cc(-c2c[nH]c3ccccc23)nc1-c1c[nH]c2ccccc12", "growth": "107% (inactive)"}
{"LINE_NOTATION": "CN1CCN(Cc2ccc(/C=N/Nc3ccnc4cc(Cl)ccc34)cc2)CC1", "growth": "111% (inactive)"}
{"LINE_NOTATION": "Brc1ccc(-c2cc(-c3ccc4c(c3)OC=CO4)n[nH]2)s1", "growth": "90.7% (inactive)"}

Q: Record request: growth value, item "C/C(=N\NC(=O)Nc1ccccc1)c1nnn(-c2ccc([N+](=O)[O-])cc2)c1C"
A: 108% (inactive)

Q: Name the reported growth value associated with the compound "CCOC(=O)c1cccnc1Nc1ccc(NC(=O)Nc2ccc(Cl)c(C(F)(F)F)c2)cc1"
A: 58% (inactive)

Q: Find the recorded growth belonging to "C#C[C@]1(O)CC[C@H]2[C@@H]3CC=C4c5sc(Nc6cccc(F)c6)nc5CC[C@]4(C)[C@H]3CC[C@@]21C" and report it.
A: 44% (inactive)

Q: Recorded growth of "Cn1cc(-c2cc3ncnc(Nc4ccc(CC(=O)Nc5nc(C(C)(C)C)cs5)cc4)c3s2)cn1" , please.
A: 79.1% (inactive)

Q: Please report the recorded growth for "C#CCOc1ccc(-c2csc(NC(=O)C=C)n2)cc1NS(=O)(=O)c1cccc2c(N(C)C)cccc12" .
A: 68.6% (inactive)

Q: What growth value was documented for this compound, "CC1(C)CC[C@]23CC[C@]4(C)[C@H](CC[C@@H]5[C@@]6(C)CC[C@H](NCO)C(C)(C)[C@@H]6CC[C@]54C)[C@H]2[C@H]1OC3" ?
A: 103% (inactive)

Q: What value of measured growth is listed for "O=C1[C@@H]2Cc3c([nH]c4ccccc34)[C@H](c3ccc(Cl)cc3)N2C(=O)CN1C1CCN(Cc2ccccc2)CC1" ?
A: 61.4% (inactive)

Q: Suppose we examine the compound "Cc1csc(/N=C(N)/N=C(\N)c2cccc(Br)c2)n1" ; what growth value has been reported?
A: 102% (inactive)

* * *

# Test system: 786-0 renal
# EXPERIMENT_SUMMARY: NCI-60 one-dose screen, 48 h (100 = growth as untreated, 0 = no growth, -100 = all killed)
# RECORDED_CONDITIONS: 10 µM unless noted
Compounds without any hit were thinned out: in the full panel of roughly 83,000, 20% have a hit.
PROPERTY_NAME: growth (%)
Field: numeric (%). Do not append units.

Answered cases to consult:
{"MOLECULE": "N#Cc1c(-c2cccs2)cc(-c2cnccn2)nc1SCC(=O)N/N=C/c1ccncc1", "growth (%)": 104}
{"MOLECULE": "Cc1ccc(NC(=O)/C=C/c2ccc(OCCCOc3ccc4c(C)cc(=O)oc4c3)cc2)cc1", "growth (%)": 44.3}
{"MOLECULE": "C#Cc1nc(/C=C/CCCCCCC(=O)NO)cs1", "growth (%)": -87.8}
{"MOLECULE": "CC(Nc1ncnc2ccc(-c3cnc4cnccn34)cc12)c1ccccc1 (centres undefined)", "growth (%)": 47.9}
{"MOLECULE": "CC(=C(c1ccc(OCCN2CCCC2)cc1)c1ccc(OCCN2CCCC2)cc1)c1ccc(Cl)cc1", "growth (%)": -85.9}

Q: Requested read-out growth, target or system 786-0 renal, entry "C/C(=N\NC(=O)/C=C/CC(=O)O)c1nnn(-c2ccc([N+](=O)[O-])cc2)c1C"
A: 101

* * *

# System: RPMI-8226 leukemia
# EXPERIMENT_SUMMARY: NCI-60 one-dose screen, 48 h (100 = growth as untreated, 0 = no growth, -100 = all killed)
# RECORDED_CONDITIONS: 10 µM unless noted
This is part of a sample that, as a whole, favours compounds with a hit. Of some 83,000 tested, about 20% had one in any assay.
PROPERTY_NAME: growth (%)
A number alone suffices; assume %.

The following compounds have reported results that may help.
{"LINE_NOTATION": "CN1CCN(CCNc2nc(-c3cccc(NS(=O)(=O)c4cccc5c(N(C)C)cccc45)c3)cs2)CC1", "READOUT_UNITS": "%", "ENDPOINT_RESULT": 35.8}
{"LINE_NOTATION": "C#C[C@]1(O)CC[C@H]2[C@@H]3CC=C4c5sc(Nc6cc(C)cc(C)c6)nc5CC[C@]4(C)[C@H]3CC[C@@]21C", "READOUT_UNITS": "%", "ENDPOINT_RESULT": -27.3}
{"LINE_NOTATION": "COc1ccc2[nH]cc(/C=N/Nc3ccnc4cc(Cl)ccc34)c2c1", "READOUT_UNITS": "%", "ENDPOINT_RESULT": -62.8}
{"LINE_NOTATION": "CN1CCN(c2ccc(Nc3nc(NCCNS(=O)(=O)c4ccc5ccccc5c4)c4sccc4n3)cc2)CC1", "READOUT_UNITS": "%", "ENDPOINT_RESULT": 49.8}
{"LINE_NOTATION": "CC1CCN(CC(=O)Nn2c(COc3ccccc3)nc3ccccc3c2=O)CC1", "READOUT_UNITS": "%", "ENDPOINT_RESULT": 76.8}

Q: What value of growth has been reported for the following compound? "O=C(NNc1nc2cc(F)cc(F)c2n2cccc12)c1cccnn1"
A: 11.8

Q: Which measured growth value corresponds to "COc1ccc([C@H]2C(=O)N(c3cc(OC)c(OC)c(OC)c3)[C@@H]2c2ccc(OC)c(O)c2)cc1" ?
A: 22.2

* * *

# Tested on: M14 melanoma
# EXPERIMENT_SUMMARY: NCI-60 one-dose screen, 48 h
# RECORDED_CONDITIONS: 10 µM unless noted
About 83,000 compounds went through this panel and 20% of them were active in at least one assay; those are over-represented in the sample as a whole. Active and inactive are the calls of the source. The calls were made as follows: active = growth percent below 10; inactive = the rest.
# valid calls are true = active, false = inactive; nothing else

Examples from the recorded data:
{"LINE_NOTATION": "CC(C)Sc1nc(-c2ccccc2)c(C#N)c(N2CCOCC2)n1", "CLASS_ASSIGNMENT": "false"}
{"LINE_NOTATION": "O=C(Nc1cccc(C(F)(F)F)c1)N1CCN(c2cc(-c3cn(-c4ccccc4)nc3-c3cccc(O)c3)ccn2)CC1", "CLASS_ASSIGNMENT": "false"}
{"LINE_NOTATION": "Cc1ccc(C(=O)CSc2nnc(-c3ccc(-c4ccc(Cl)cc4)nc3C)o2)cc1", "CLASS_ASSIGNMENT": "false"}

Q: State the result this test recorded for "C[C@@H]1OCC2(CCN(c3cnc(C(=O)Nc4cc(F)cc5cccnc45)cn3)CC2)[C@@H]1N" .
A: false

Q: Each compound tested received a call. Report the one for "O=C(CSc1nc2ccccc2c(=O)n1-c1ccc(Cl)cc1)N/N=C/c1ccc(Oc2ccc(Cl)cc2)cc1" .
A: true

Q: Entry "O=C(CCCCCCNC(=O)C(O)(O)C(F)(F)F)Nc1ccc(Cl)cc1" : call = ?
A: false

* * *

# Test system: BT-549 breast
# EXPERIMENT_SUMMARY: NCI-60 one-dose screen, 48 h
# RECORDED_CONDITIONS: 10 µM unless noted
The panel holds about 83,000 compounds, 20% with a hit somewhere; the sample as a whole holds those more often. The source made the active and inactive calls. The calls were made as follows: active = growth percent below 10; inactive = the rest.
Output constraint: value belongs to Yes for active, No for inactive

{"COMPOUND": "COc1ccc(-c2cc(-c3ccc(N4CCOCC4)cc3)n3c(n2)nc2ccccc23)cc1OC", "TESTED_TARGET": "BT-549 breast", "CLASS_ASSIGNMENT": "No"}
{"COMPOUND": "O=C(CSc1nc2ccccc2c(=O)n1-c1ccccc1)Nc1ccc(S(=O)(=O)Nc2nccs2)cc1", "TESTED_TARGET": "BT-549 breast", "CLASS_ASSIGNMENT": "No"}
{"COMPOUND": "CC1CC(=O)C2=C(C1)Nc1ccc(Br)cc1CC2c1c[nH]c2ccc(Br)cc12 (configuration not stated)", "TESTED_TARGET": "BT-549 breast", "CLASS_ASSIGNMENT": "No"}
{"COMPOUND": "CN1CCN(Cc2ccc(NC(=O)c3cncc(C#Cc4cnc5ccc(OCCCS(C)(=O)=O)nn45)c3)cc2C(F)(F)F)CC1", "TESTED_TARGET": "BT-549 breast", "CLASS_ASSIGNMENT": "Yes"}
{"COMPOUND": "CC(C)(C)c1cc(NC(=O)Nc2ccc(-c3cn4c5c(sc4n3)CCc3c[nH]cc3-5)cc2)no1", "TESTED_TARGET": "BT-549 breast", "CLASS_ASSIGNMENT": "No"}
{"COMPOUND": "Cc1ccc2c(n1)C(=O)C(Cl)=C(Nc1cccc(C(F)(F)F)c1)C2=O", "TESTED_TARGET": "BT-549 breast", "CLASS_ASSIGNMENT": "No"}
{"COMPOUND": "O=C(CCl)Nc1ccc(NC(=O)c2cc(Cl)ccc2O)c(Cl)c1", "TESTED_TARGET": "BT-549 breast", "CLASS_ASSIGNMENT": "No"}
{"COMPOUND": "CC1=C(C)C(=O)C(Nc2cccc(C(=O)OC(C)(C)C)c2)=CC1=O", "TESTED_TARGET": "BT-549 breast", "CLASS_ASSIGNMENT": "No"}

Q: Fill in: this test's call for "O=C(/C=C/c1cccc(F)c1)c1cccc(OCCCCOc2cccc(C(=O)/C=C/c3cccc(F)c3)c2)c1" is ___
A: No

Q: Tell me the recorded outcome of this test for "C#CCn1cc(/C=N/Nc2nc(-c3ccc(Br)cc3)cs2)c2ccccc21" .
A: No

Q: Status in this test for C/C(=C(/C)C1CC1CCNC1CCC(NC(=O)OC(C)(C)C)CC1)c1ccccc1 (configuration not stated) ?
A: No

Q: Please let me know the test result on file for "O=S(=O)(NCCCNc1nccc(-c2[nH]c(-c3ccccc3)nc2-c2ccc(F)c(O)c2)n1)c1cccc(F)c1" .
A: No

Q: What was the test verdict on "O=C(CSc1nnc(-c2cccs2)n1-c1ccccc1)Nc1ccccc1F" ?
A: No

Q: What call does the record list for "O=C(/C=C/c1cc(Cl)ccc1Cl)Nc1ncc(Cc2ccc(Cl)cc2)s1" ?
A: Yes

Q: Could you kindly confirm the outcome this assay logged for "COc1ccc([C@H]2C(=O)N(c3cc(OC)c(OC)c(OC)c3)[C@@H]2c2ccc(OC)c(O)c2)cc1" ?
A: Yes

Q: What did this assay record as the result for "Cc1ccc(S(=O)(=O)NCCCNc2nc(Nc3ccc(N4CCN(C)CC4)cc3)nc3ccsc23)cc1" ?
A: Yes

Q: Recorded test call requested for "Oc1ccc(-c2nc3ccc(/C(=N\N=C\c4ccc(Cl)cc4)c4ccccc4)cc3[nH]2)cc1"
A: No
